# Method: ATG_BRE_CIS: Attagene CIS-FACTORIAL HepG2 Assay for human Bone Morphogenetic Protein (BMP) Response Element (BRE) (AID 2282933)
# Condition Description: HepG2 BMP response element reporter, Attagene transcription factor profiling; actives raise or lower the signal
Calls of active or inactive are those of the source. How the source made its calls: active means hit-call score of the fitted dose curve at least 0.9, where 1 is the maximum; inactive means score below 0.9.
Outcomes: active, inactive

> print(dat)
                                    compound  group.label
 1  O=C1C(c2[nH]c3ccc(S(=O)(=O)O)cc3c2O)=Nc2ccc(S(=O)(=O)O)cc21     inactive
 2  CC(C)C[C@H]1C(=O)N2CCC[C@H]2[C@]2(O)O[C@](NC(=O)[C@@H]3C=C4c5cccc6[nH]c(Br)c(c56)C[C@H]4N(C)C3)(C(C)C)C(=O)N12     inactive
 3                    CNC[C@H](O)c1cccc(O)c1     inactive
 4                            CCCCCOC(=O)CCC     inactive
 5             O=C[C@H](O)[C@H](O)[C@H](O)CO     inactive
 6                          CCCCCCCCCCCCOCCO     inactive
 7           Nc1cccc(S(=O)(=O)c2cccc(N)c2)c1     inactive
 8  C=CC(C)(CCC=C(C)C)OC=O (configuration not stated)     inactive
 9                         CN(C)C(=N)N=C(N)N     inactive
10  CCCCC(CC)COC(=O)/C=C\C(=O)OCC(CC)CCCC (configuration not stated)     inactive
11                    CC(=O)[O][Al][O]C(C)=O     inactive
12                      O=C1CCCCCCCCCCCCCCO1     inactive
13                              NCCCN1CCOCC1     inactive
14                          COc1cc(C)cc(O)c1     inactive
15          O=c1oc(=O)c2cc3c(=O)oc(=O)c3cc12     inactive
16  CC(C#N)(CCC(=O)O)N=NC(C)(C#N)CCC(=O)O (configuration not stated)     inactive
17                                 COC(=O)OC     inactive
18                             O=CCCc1ccccc1     inactive
19  CC1(C)[C@H](C(=O)OCc2cccc(Oc3ccccc3)c2)[C@@H]1C=C(Cl)Cl     inactive
20  C=C(C)[C@@H]1CCC2=CC(=O)C[C@@H](C)[C@]2(C)C1       active
21                          S=C(S)NCCNC(=S)S     inactive
22  O=C1OC2(c3cc(Br)c(O)c(Br)c3Oc3c2cc(Br)c(O)c3Br)c2c(Cl)c(Cl)c(Cl)c(Cl)c21     inactive
